Molecular target: HLA-B*40:01
Assay: IEDB peptide-MHC binding, purified MHC/competitive/fluorescence; filed as Kd, often an IC50 or EC50 that approximates it; bounds were set here for any values at or beyond the usual limits of such assays
Conditions: source organism: Shigella flexneri 5 str. 8401
Measured endpoint: Kd

| Seq | Target desc | Measured |
| --- | --- | --- |
| FGALFMWLL | HLA-B*40:01 | ≥ 5 µM |

---

Target: HLA-A*69:01
Assay: IEDB peptide-MHC binding, purified MHC/direct/fluorescence; filed as Kd, often an IC50 or EC50 that approximates it; bounds were set here for any values at or beyond the usual limits of such assays
Details: source organism: Influenza A virus
pKd: −log10 of the molar value.

| Seq | pKd |
| --- | --- |
| DWSGYSGSF | ≤ 4.70 |
